Test Description: AUC (0 to 336 hrs) in Sprague-Dawley rat at 10 mg/kg, po administered as single dose
Assay type: ADME, organism-based
Set-up: time < 336 hr, dose 10 mg/kg, route oral
Measurement Conditions: plasma
Reported Metric: AUC(0-t) at 336 h (ng·h/mL)
Report the figure in ng·h/mL without appending any unit label.

Note AUC(0-t) at 336 h for the compound shown: CCCN(CCC)CCCCN(C)Cc1ccc(CN(Cc2ncc[nH]2)Cc2nccn2C)cc1.O=C(O)C(O)C(O)C(=O)O 325

---

Test Description: Tmax in Sprague-Dawley rat at 10 mg/kg, po administered as single dose
Measurement Conditions: in vivo
Reported Metric: Tmax (h)
Report the figure in h without appending any unit label.

Note Tmax for the compound shown: CCCN(CCC)CCCCN(C)Cc1ccc(CN(Cc2ncc[nH]2)Cc2nccn2C)cc1.O=C(O)C(O)C(O)C(=O)O 2.3

---

Target: C-X-C chemokine receptor type 4 (Homo sapiens, UniProt P61073, E277A)
Sequence (P61073 whole entry E277A): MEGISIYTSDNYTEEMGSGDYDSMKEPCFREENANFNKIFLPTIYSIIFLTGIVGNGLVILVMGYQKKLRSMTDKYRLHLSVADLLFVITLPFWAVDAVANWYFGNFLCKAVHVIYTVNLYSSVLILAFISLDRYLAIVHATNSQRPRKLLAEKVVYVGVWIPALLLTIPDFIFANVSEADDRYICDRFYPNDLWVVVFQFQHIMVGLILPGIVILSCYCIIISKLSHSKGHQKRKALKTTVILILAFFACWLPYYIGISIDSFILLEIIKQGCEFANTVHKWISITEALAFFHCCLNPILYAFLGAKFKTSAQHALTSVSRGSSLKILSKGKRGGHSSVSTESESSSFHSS
Reported Metric: pIC50
Formally, pIC50 is defined as -log10 of the concentration c, with c in mol/L.

Note pIC50 for the compound shown: CCCN(CCC)CCCCN(C)Cc1ccc(CN(Cc2ncc[nH]2)Cc2nccn2C)cc1.O=C(O)C(O)C(O)C(=O)O 8.51

---

Target: C-X-C chemokine receptor type 4 (Homo sapiens, UniProt P61073)
Sequence (P61073 whole entry): as the sequence (P61073 whole entry E277A) above, with A277E counted along it
Test Description: Displacement of [125I]SDF-1alpha form CXCR4 expressed in CHO cells by scintillation counting
Format: cell-based
Reported Metric: IC50 (nM)
Report the figure in nM without appending any unit label.

Note IC50 for the molecule shown: CCCN(CCC)CCCCN(C)Cc1ccc(CN(Cc2ncc[nH]2)Cc2nccn2C)cc1.O=C(O)C(O)C(O)C(=O)O 0.61

---

Target: C-X-C chemokine receptor type 4 (Homo sapiens, UniProt P61073, E275A)
Sequence (P61073 whole entry E275A): as the sequence (P61073 whole entry E277A) above, with E275A, A277E counted along it
Test Description: Inhibition of Mab 12G5 binding to CXCR4 E275A mutant expressed in HEK293 cells
Reported Metric: pIC50
Formally, pIC50 is defined as -log10 of the concentration c, with c in mol/L.

Note pIC50 for the molecule shown: CCCN(CCC)CCCCN(C)Cc1ccc(CN(Cc2ncc[nH]2)Cc2nccn2C)cc1.O=C(O)C(O)C(O)C(=O)O 9.00

---

Test system: Human immunodeficiency virus 1
Test Description: Antiviral activity against PI-resistant HIV1 HXB2 infected in HEK293 cells assessed as inhibition of viral replication after 2 days
Format: functional, organism-based
Measurement Conditions: Human immunodeficiency virus 1, HXB2, HEK293, 48 h
Reported Metric: pIC50
Formally, pIC50 is defined as -log10 of the concentration c, with c in mol/L.

                         structure_notation                          target  reported_measurement
0  c1cc(CN2CCCNCCNCCCNCC2)ccc1CN1CCCNCCNCCCNCC1  Human immunodeficiency virus 1                  8.04

As a next step, examine the compound that follows.
Note pIC50 for the compound shown: CCCN(CCC)CCCCN(C)Cc1ccc(CN(Cc2ncc[nH]2)Cc2nccn2C)cc1.O=C(O)C(O)C(O)C(=O)O 9.15

---

Test Description: Oral bioavailability in Sprague-Dawley rat at 10 mg/kg administered as single dose
Type: ADME, organism-based
Measurement Conditions: in vivo
Reported Metric: bioavailability (%)
Report the figure in % without appending any unit label.

Note bioavailability for the compound shown: CCCN(CCC)CCCCN(C)Cc1ccc(CN(Cc2ncc[nH]2)Cc2nccn2C)cc1.O=C(O)C(O)C(O)C(=O)O 25.6

---

Target: C-X-C chemokine receptor type 4 (Homo sapiens, UniProt P61073, V112A)
Test Description: Inhibition of Mab 12G5 binding to CXCR4 V112A mutant expressed in HEK293 cells
Reported Metric: IC50 (nM)
Report the figure in nM without appending any unit label.

Note IC50 for the molecule shown: CCCN(CCC)CCCCN(C)Cc1ccc(CN(Cc2ncc[nH]2)Cc2nccn2C)cc1.O=C(O)C(O)C(O)C(=O)O 2.2

---

Tested on: Human immunodeficiency virus 1
Test Description: Antiviral activity against HIV1 JRCSF infected in human PBMC assessed as inhibition of viral p24 antigen production after 7 to 10 days by ELISA
Format: functional
Measurement Conditions: Human immunodeficiency virus 1, JRCSF ISOLATE
Reported Metric: EC50 (nM)
Report the figure in nM without appending any unit label.

Note EC50 for the compound shown: Cc1cn([C@H]2C[C@H](N=[N+]=[N-])[C@@H](CO)O2)c(=O)[nH]c1=O [ZIDOVUDINE] 0.96

Note EC50 for the compound shown: COC[C@@H](c1ccc(C(F)(F)F)cc1)N1CCN(C2(C)CCN(C(=O)c3c(C)ncnc3C)CC2)C[C@@H]1C [VICRIVIROC] 0.37

Note EC50 for the compound shown: CC(C)(C)NC(=O)[C@@H]1C[C@@H]2CCCC[C@@H]2CN1C[C@@H](O)[C@H](Cc1ccccc1)NC(=O)[C@H](CC(N)=O)NC(=O)c1ccc2ccccc2n1 2.6

---

Target: C-X-C chemokine receptor type 4 (Homo sapiens, UniProt P61073, I284A)
Sequence (P61073 whole entry I284A): as the sequence (P61073 whole entry E277A) above, with A277E, I284A counted along it
Test Description: Inhibition of Mab 12G5 binding to CXCR4 I284A mutant expressed in HEK293 cells
Reported Metric: pIC50
Formally, pIC50 is defined as -log10 of the concentration c, with c in mol/L.

State recorded pIC50 with C-X-C chemokine receptor type 4 (Homo sapiens, UniProt P61073, I284A), entry CCCN(CCC)CCCCN(C)Cc1ccc(CN(Cc2ncc[nH]2)Cc2nccn2C)cc1.O=C(O)C(O)C(O)C(=O)O , no comment. 8.92

---

Test Description: Cmax in Sprague-Dawley rat at 10 mg/kg, po administered as single dose
Assay type: ADME, organism-based
Design: dose 10 mg/kg, route oral
Measurement Conditions: in vivo
Reported Metric: Cmax (ng/mL)
Report the figure in ng/mL without appending any unit label.

Note Cmax for the compound shown: CCCN(CCC)CCCCN(C)Cc1ccc(CN(Cc2ncc[nH]2)Cc2nccn2C)cc1.O=C(O)C(O)C(O)C(=O)O 86.3

---

System: Human immunodeficiency virus 1
Test Description: Antiviral activity against T20-resistant HIV1 NL4-3 infected in HEK293 cells assessed as inhibition of viral replication after 2 days
Format: functional, organism-based
Measurement Conditions: Human immunodeficiency virus 1, NL4-3, HEK293, 48 h
Reported Metric: pIC50
Formally, pIC50 is defined as -log10 of the concentration c, with c in mol/L.

                         structure_notation  reported_measurement
0  c1cc(CN2CCCNCCNCCCNCC2)ccc1CN1CCCNCCNCCCNCC1                  8.64

State recorded pIC50 with Human immunodeficiency virus 1, entry CCCN(CCC)CCCCN(C)Cc1ccc(CN(Cc2ncc[nH]2)Cc2nccn2C)cc1.O=C(O)C(O)C(O)C(=O)O , no comment. 9.40

---

Target: C-X-C chemokine receptor type 4 (Homo sapiens, UniProt P61073, V99A)
Test Description: Inhibition of Mab 12G5 binding to CXCR4 V99A mutant expressed in HEK293 cells
Reported Metric: pIC50
Formally, pIC50 is defined as -log10 of the concentration c, with c in mol/L.

Note pIC50 for the compound shown: CCCN(CCC)CCCCN(C)Cc1ccc(CN(Cc2ncc[nH]2)Cc2nccn2C)cc1.O=C(O)C(O)C(O)C(=O)O 8.82

---

Target: C-X-C chemokine receptor type 4 (Homo sapiens, UniProt P61073, V280A)
Sequence (P61073 whole entry V280A): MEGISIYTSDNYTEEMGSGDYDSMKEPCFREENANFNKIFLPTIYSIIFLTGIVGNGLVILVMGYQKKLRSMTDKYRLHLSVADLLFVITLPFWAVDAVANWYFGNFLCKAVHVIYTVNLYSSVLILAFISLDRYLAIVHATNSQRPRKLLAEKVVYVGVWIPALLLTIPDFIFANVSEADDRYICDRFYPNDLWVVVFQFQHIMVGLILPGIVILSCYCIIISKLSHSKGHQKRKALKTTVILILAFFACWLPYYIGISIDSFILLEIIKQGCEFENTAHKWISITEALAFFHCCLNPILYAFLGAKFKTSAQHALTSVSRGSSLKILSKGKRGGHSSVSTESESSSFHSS
Test Description: Inhibition of Mab 12G5 binding to CXCR4 V280A mutant expressed in HEK293 cells
Reported Metric: IC50 (nM)
Report the figure in nM without appending any unit label.

State recorded IC50 with C-X-C chemokine receptor type 4 (Homo sapiens, UniProt P61073, V280A), entry CCCN(CCC)CCCCN(C)Cc1ccc(CN(Cc2ncc[nH]2)Cc2nccn2C)cc1.O=C(O)C(O)C(O)C(=O)O , no comment. 1

---

Test Description: Clearance in Sprague-Dawley rat at 10 mg/kg, iv administered as single dose
Type: ADME, organism-based
Parameters: dose 10 mg/kg, route intravenous
Measurement Conditions: in vivo
Reported Metric: clearance

Note clearance for the compound shown: CCCN(CCC)CCCCN(C)Cc1ccc(CN(Cc2ncc[nH]2)Cc2nccn2C)cc1.O=C(O)C(O)C(O)C(=O)O 65 mL/min/kg

---

Target: C-X-C chemokine receptor type 4 (Homo sapiens, UniProt P61073, D262A)
Sequence (P61073 whole entry D262A): as the sequence (P61073 whole entry V280A) above, with D262A, A280V counted along it
Reported Metric: pIC50
Formally, pIC50 is defined as -log10 of the concentration c, with c in mol/L.

Note pIC50 for the compound shown: CCCN(CCC)CCCCN(C)Cc1ccc(CN(Cc2ncc[nH]2)Cc2nccn2C)cc1.O=C(O)C(O)C(O)C(=O)O 8.80

---

Target: C-X-C chemokine receptor type 4 (Homo sapiens, UniProt P61073, H113A)
Sequence (P61073 whole entry H113A): as the sequence (P61073 whole entry E277A) above, with H113A, A277E counted along it
Reported Metric: pIC50
Formally, pIC50 is defined as -log10 of the concentration c, with c in mol/L.

State recorded pIC50 with C-X-C chemokine receptor type 4 (Homo sapiens, UniProt P61073, H113A), entry CCCN(CCC)CCCCN(C)Cc1ccc(CN(Cc2ncc[nH]2)Cc2nccn2C)cc1.O=C(O)C(O)C(O)C(=O)O , no comment. 9.10
